Consider the following compounds and their measured MIC readings.
Test system: A. non-baumannii isolates (n = 87)
Test: MIC, broth microdilution (EUCAST), A. non-baumannii isolates
Type: cell-based, Acinetobacter spp. (non-baumannii)
Conditions: Acinetobacter proteolyticus, isolate NO-Ab210, Acinetobacter proteolyticus; in combinations ETZ fixed at 8 mg/L; read-out: MIC
Recorded Endpoint: MIC (µg/mL)

CO/N=C(\C(=O)N[C@@H]1C(=O)N2C(C(=O)[O-])=C(C[N+]3(C)CCCC3)CS[C@H]12)c1csc(N)n1 [cefepime] :: 1
C[n+]1ccn(C[C@@]2(C)[C@H](C(=O)[O-])N3C(=O)C[C@H]3S2(=O)=O)n1 [enmetazobactam] :: 1
CC1(C)[C@H](C(=O)O)N2C(=O)C[C@H]2S1(=O)=O [sulbactam] :: 0.25

---

System: carbapenem-resistant A. baumannii (CRAB) isolates (n = 67)
Assay: MIC, broth microdilution (EUCAST), carbapenem-resistant A. baumannii isolates
Type: cell-based, Acinetobacter baumannii
Settings: Acinetobacter baumannii, isolate Ab133; ST 2; ADC-30, OXA-66, OXA-58, TEM-12; ETZ fixed 8 mg/L in combinations
Method: The bacterial strains used in this study comprised 208 clinical isolates from the Spanish National Acinetobacter spp. […] The antimicrobial susceptibility of the 208 Acinetobacter spp. isolates was assessed using the broth microdilution method, as described in the European Committee on Antimicrobial Susceptibility Testing (EUCAST) v.15 guidelines (http://www.eucast.org/clinical_breakpoints). […] MICs for enmetazobactam alone were assessed as well. […]
Consider the following compounds and their measured MIC readings.
Recorded Endpoint: MIC (µg/mL)

C[C@@H](O)[C@H]1C(=O)N2C(C(=O)O)=C(SCCN=CN)C[C@H]12 [imipenem] :: 16
C[n+]1ccn(C[C@@]2(C)[C@H](C(=O)[O-])N3C(=O)C[C@H]3S2(=O)=O)n1 [enmetazobactam] :: 8
CC1(C)[C@H](C(=O)O)N2C(=O)C[C@H]2S1(=O)=O [sulbactam] :: 32
CO/N=C(\C(=O)N[C@@H]1C(=O)N2C(C(=O)[O-])=C(C[N+]3(C)CCCC3)CS[C@H]12)c1csc(N)n1 [cefepime] :: 32

---

Test system: carbapenem-susceptible A. baumannii isolates (n = 54)
Experiment: MIC, broth microdilution (EUCAST), carbapenem-susceptible A. baumannii isolates
Format: cell-based, Acinetobacter baumannii
Consider the following compounds and their measured MIC distribution 0.12 readings.
Recorded Endpoint: MIC distribution 0.12

C[n+]1ccn(C[C@@]2(C)[C@H](C(=O)[O-])N3C(=O)C[C@H]3S2(=O)=O)n1 [enmetazobactam] :: 0
CO/N=C(\C(=O)N[C@@H]1C(=O)N2C(C(=O)[O-])=C(C[N+]3(C)CCCC3)CS[C@H]12)c1csc(N)n1 [cefepime] :: 0
CC1(C)[C@H](C(=O)O)N2C(=O)C[C@H]2S1(=O)=O [sulbactam] :: 0
C[C@@H](O)[C@H]1C(=O)N2C(C(=O)O)=C(SCCN=CN)C[C@H]12 [imipenem] :: 61.1

---

Consider the following molecules and their measured MIC readings.
System: A. non-baumannii isolates (n = 87)
Experiment: MIC, broth microdilution (EUCAST), A. non-baumannii isolates
Assay type: cell-based, Acinetobacter spp. (non-baumannii)
Conditions: Acinetobacter haemolyticus, isolate NO-Ab217, Acinetobacter haemolyticus; in combinations ETZ fixed at 8 mg/L
Recorded Endpoint: MIC (µg/mL)

CO/N=C(\C(=O)N[C@@H]1C(=O)N2C(C(=O)[O-])=C(C[N+]3(C)CCCC3)CS[C@H]12)c1csc(N)n1 [cefepime] :: 2
C[n+]1ccn(C[C@@]2(C)[C@H](C(=O)[O-])N3C(=O)C[C@H]3S2(=O)=O)n1 :: 0.5
CC1(C)[C@H](C(=O)O)N2C(=O)C[C@H]2S1(=O)=O :: 0.25
C[C@@H](O)[C@H]1C(=O)N2C(C(=O)O)=C(SCCN=CN)C[C@H]12 :: 0.12
